# System: NCI-60 standardized human tumor cell line panel
# assay-name: cells
# Assay type: cell-based
# condition-context: 786-0 (RE) cell line; read-out: NCI-60 screening: Raw GI50
recorded-metric: GI50 (nM)
Please reply with the bare figure in nM and do not write the unit itself.

Previously resolved entries follow.
Query: Could you share what GI50 was measured for COc1cc2cc(C(=O)N3CC(CCl)c4c3cc(OC(=O)N3CCN(C)C5CSSCC53)c3ccccc43)[nH]c2c(OC)c1OC (mixture of isomers) [Me-SS66T-CBI-TMI] , tested on NCI-60 standardized human tumor cell line panel?
Reply: 16

Query: Recall the recorded GI50 for COc1cc2cc(C(=O)N3C[C@@H](CCl)c4c3cc(OC(=O)N(CCC(=O)N3CCN(C)CC3)C3CCCCC3)c3ccccc43)[nH]c2c(OC)c1OC with NCI-60 standardized human tumor cell line panel and state it.
Reply: 1700

Query: Give GI50 (NCI-60 standardized human tumor cell line panel) of the following compound: COc1cc2cc(C(=O)N3C[C@@H](CCl)c4c3cc(OC(=O)N(CCC(=O)N3CCN(C)CC3)[C@H]3CCSSC3)c3ccccc43)[nH]c2c(OC)c1OC
Reply: 160

For the next question, use this compound.
Query: Lab request: please report GI50 under test system NCI-60 standardized human tumor cell line panel for COc1cc2cc(C(=O)N3CC(CCl)c4c3cc(OC(=O)N3CCN(C)C5CSSCC53)c3ccccc43)[nH]c2c(OC)c1OC (mixture of isomers) [Me-SS66C-CBI-TMI]
Reply: 200

---

# Tested on: NCI-60 standardized human tumor cell line panel
# assay-name: cells
# Assay type: cell-based
# condition-context: cell line MOLT-4 (LE:MOLT-4); TMI sheet
recorded-metric: NCI-60 screening: Log(GI50)

Completed entries (count: 3):
Query: NCI-60 standardized human tumor cell line panel / NCI-60 screening: Log(GI50) / COc1cc2cc(C(=O)N3C[C@@H](CCl)c4c3cc(OC(=O)N(CCC(=O)N3CCN(C)CC3)[C@H]3CCSSC3)c3ccccc43)[nH]c2c(OC)c1OC : value?
Reply: -7.05

Query: Param readout = NCI-60 screening: Log(GI50); param system = NCI-60 standardized human tumor cell line panel; param query = COc1cc2cc(C(=O)N3CC(CCl)c4c3cc(OC(=O)N3CCN(C)C5CSSCC53)c3ccccc43)[nH]c2c(OC)c1OC (mixture of isomers) [Me-SS66C-CBI-TMI] ; response: value
Reply: -7.16

Query: Entry COc1cc2cc(C(=O)N3C[C@@H](CCl)c4c3cc(OC(=O)N(CCC(=O)N3CCN(C)CC3)C3CCCCC3)c3ccccc43)[nH]c2c(OC)c1OC , system NCI-60 standardized human tumor cell line panel: what NCI-60 screening: Log(GI50) was measured?
Reply: -6.23

Please find the next compound below.
Query: Item: COc1cc2cc(C(=O)N3CC(CCl)c4c3cc(OC(=O)N3CCN(C)C5CSSCC53)c3ccccc43)[nH]c2c(OC)c1OC (mixture of isomers) [Me-SS66T-CBI-TMI] Test system: NCI-60 standardized human tumor cell line panel Read-out: NCI-60 screening: Log(GI50) Value: ?
Reply: -8

---

# Test system: panel of 140 standard cancer cell lines
# assay-name: ProliFiler-140 cancer cell line screen (CellTiterGlo, 72 h)
# Type: cell-based
# condition-context: SNU-216, read-out: IC50 [M] (ProliFiler-140), SNU-216 (Stomach)
recorded-metric: IC50 (M)
Respond with the bare value in M.

Query: For the compound shown here, COc1cc2cc(C(=O)N3C[C@@H](CCl)c4c3cc(OC(=O)N3CCN(C(=O)CCC(=O)N5CCN(C)CC5)[C@H]5CSSC[C@H]53)c3ccccc43)[nH]c2c(OC)c1OC [P-SS66C-CBI-TMI] , give the reported IC50.
Reply: 9.22e-08

---

# System: panel of 140 standard cancer cell lines
# assay-name: ProliFiler-140 cancer cell line screen (CellTiterGlo, 72 h)
# Assay type: cell-based
# condition-context: Homo sapiens, U-266, U-266 (Blood); read-out: IC50 [M] (ProliFiler-140)
recorded-metric: IC50 (M)
The reply should be a number in M, with the unit left off.

Query: Value lookup for IC50; key = COc1cccc2c1C(=O)c1c(O)c3c(c(O)c1C2=O)C[C@@](O)(C(=O)CO)C[C@@H]3O[C@H]1C[C@H](N)[C@H](O)[C@H](C)O1 [doxorubicin, reference compound]
Reply: 1.11e-07

---

# System: panel of 140 standard cancer cell lines
# assay-name: ProliFiler-140 cancer cell line screen (CellTiterGlo, 72 h)
# Assay type: cell-based
# condition-context: Homo sapiens, NCI-H2228, read-out: IC50 [M] (ProliFiler-140), H2228 (Lung)
recorded-metric: IC50 (M)
Numeric only. Scale: M

Query: Lab note: need IC50 for COc1cc2cc(C(=O)N3C[C@@H](CCl)c4c3cc(OC(=O)N3CCN(C(=O)CCC(=O)N5CCN(C)CC5)[C@H]5CSSC[C@H]53)c3ccccc43)[nH]c2c(OC)c1OC [P-SS66C-CBI-TMI] on panel of 140 standard cancer cell lines, anyone have it?
Reply: 4.53e-08

---

# System: panel of 140 standard cancer cell lines
# assay-name: ProliFiler-140 cancer cell line screen (CellTiterGlo, 72 h)
# Assay type: cell-based
# condition-context: Homo sapiens, SCLC-21H, read-out: IC50 [M] (ProliFiler-140), SCLC-21H (Lung)
recorded-metric: IC50
Answer format reminder: number followed by unit.

Query: Give the measured IC50 of COc1cc2cc(C(=O)N3C[C@@H](CCl)c4c3cc(OC(=O)N3CCN(C(=O)CCC(=O)N5CCN(C)CC5)[C@H]5CSSC[C@H]53)c3ccccc43)[nH]c2c(OC)c1OC [P-SS66C-CBI-TMI] .
Reply: 2.56e-08 M

---

# Test system: NCI-60 standardized human tumor cell line panel
# assay-name: cells
# Type: cell-based
# condition-context: SK-MEL-2; AZI sheet; read-out: GI50
The reader will find reported GI50 values listed item by item below.
The figure you give is taken to be in µM; do not add the unit.

These solved cases illustrate the format of a correct answer.
Query: Consider the molecule CN1CCN(C(=O)Oc2cc3c(c4ccccc24)C(CCl)CN3C(=O)c2cc3cc(OCCCN4CCC4)ccc3[nH]2)C2CSSCC21 (mixture of isomers) [Me-SS66C-CBI-AZI] and give its measured GI50.
Reply: 0.031

Query: Return reported GI50; argument: CN1CCN(C(=O)CCN(C(=O)Oc2cc3c(c4ccccc24)[C@H](CCl)CN3C(=O)c2cc3cc(OCCCN4CCC4)ccc3[nH]2)[C@H]2CCSSC2)CC1 [P-SS60-CBI-AZI]
Reply: 0.34

Query: GI50 for O=C(c1cc2cc(OCCCN3CCC3)ccc2[nH]1)N1C[C@@H](CCl)c2c1cc(OCc1ccccc1)c1ccccc21 [OBn-CBI-AZI] ?
Reply: 0.37

Query: Consider the molecule CN(CCSSCCN1CCOCC1)C(=O)Oc1cc2c(c3ccccc13)[C@H](CCl)CN2C(=O)c1cc2cc(OCCCN3CCC3)ccc2[nH]1 [SS00M-CBI-AZI] and give its measured GI50.
Reply: 0.049

New cases:
Query: // GI50 lookup, key: CN1CCN(C(=O)Oc2cc3c(c4ccccc24)C(CCl)CN3C(=O)c2cc3cc(OCCCN4CCC4)ccc3[nH]2)C2CSSCC21 (mixture of isomers) [Me-SS66T-CBI-AZI]
Reply: 0.019

---

# Tested on: NCI-60 standardized human tumor cell line panel
# assay-name: cells
# Assay type: cell-based
# condition-context: SF-295; read-out: GI50
Label t when GI50 is strictly below 100 nM; otherwise label f.

Query: Determine if COc1cc2cc(C(=O)N3C[C@@H](CCl)c4c3cc(OC(=O)N(CCC(=O)N3CCN(C)CC3)[C@H]3CCSSC3)c3ccccc43)[nH]c2c(OC)c1OC shows GI50 strictly lower than 100 nM.
Reply: f

Query: Consider COc1cc2cc(C(=O)N3C[C@@H](CCl)c4c3cc(OC(=O)N(CCC(=O)N3CCN(C)CC3)C3CCCCC3)c3ccccc43)[nH]c2c(OC)c1OC . Does its GI50 lie strictly below 100 nM?
Reply: f

Query: Lab note: confirm whether the reported GI50 for this molecule is below 100 nM, equality not counting. molecule: COc1cc2cc(C(=O)N3C[C@@H](CCl)c4c3cc(OC(=O)N(C)CCSSCCN3CCOCC3)c3ccccc43)[nH]c2c(OC)c1OC [SS00M-CBI-TMI]
Reply: t

Query: is_below(GI50, 100 nM) for COc1cc2cc(C(=O)N3CC(CCl)c4c3cc(OC(=O)N3CCN(C)C5CSSCC53)c3ccccc43)[nH]c2c(OC)c1OC (mixture of isomers) [Me-SS66C-CBI-TMI] ?
Reply: f

Others:
Query: Please let me know if COc1cc2cc(C(=O)N3CC(CCl)c4c3cc(OC(=O)N3CCN(C)C5CSSCC53)c3ccccc43)[nH]c2c(OC)c1OC (mixture of isomers) [Me-SS66T-CBI-TMI] shows GI50 below 100 nM.
Reply: t
